Overview of recorded pKd for various binders
Target: T1, ADI-26909
T1 construct: anti-CD3 antibody made in CHO cells, captured by anti-human Fc
T1 sequence (VH, as listed by the source limits assumed, chain 1 of 2): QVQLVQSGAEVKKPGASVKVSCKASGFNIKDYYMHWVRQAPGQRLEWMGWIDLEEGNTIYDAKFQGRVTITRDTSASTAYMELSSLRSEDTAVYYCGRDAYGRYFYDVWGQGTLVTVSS
T1 sequence (VL, as listed by the source limits assumed, chain 2 of 2): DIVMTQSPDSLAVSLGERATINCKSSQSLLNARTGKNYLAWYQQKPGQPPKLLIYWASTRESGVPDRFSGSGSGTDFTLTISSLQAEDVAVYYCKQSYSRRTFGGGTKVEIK
Experiment: SPR Carterra avidity, yeast anti-ID
pKd: −log10 of the molar value.
MEASUREMENT KIND: pKd

[[record]]
binder = "ADI-34135 (antibody, V domains shown, anti-ID IgG) VH: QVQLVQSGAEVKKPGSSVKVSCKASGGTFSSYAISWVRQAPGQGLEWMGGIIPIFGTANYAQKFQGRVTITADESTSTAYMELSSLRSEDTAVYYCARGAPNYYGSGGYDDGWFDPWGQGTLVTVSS VL: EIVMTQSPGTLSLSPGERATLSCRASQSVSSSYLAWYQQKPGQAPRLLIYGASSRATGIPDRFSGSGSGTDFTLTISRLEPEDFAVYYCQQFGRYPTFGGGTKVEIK"
value_reported = 10.00

[[record]]
binder = "ADI-34137 (antibody, V domains shown, anti-ID IgG) VH: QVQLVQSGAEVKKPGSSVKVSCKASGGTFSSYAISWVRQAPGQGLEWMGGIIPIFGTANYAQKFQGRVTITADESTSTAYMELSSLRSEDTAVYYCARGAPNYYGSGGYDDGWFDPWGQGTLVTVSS VL: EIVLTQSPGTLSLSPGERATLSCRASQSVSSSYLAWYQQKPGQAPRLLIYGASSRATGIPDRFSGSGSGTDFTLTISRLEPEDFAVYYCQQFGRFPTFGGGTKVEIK"
value_reported = 9.49

[[record]]
binder = "ADI-30242 (antibody, V domains shown, anti-ID IgG) VH: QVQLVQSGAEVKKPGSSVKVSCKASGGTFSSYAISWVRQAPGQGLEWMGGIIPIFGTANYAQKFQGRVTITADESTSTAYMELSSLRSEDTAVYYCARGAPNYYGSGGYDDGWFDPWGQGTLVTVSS VL: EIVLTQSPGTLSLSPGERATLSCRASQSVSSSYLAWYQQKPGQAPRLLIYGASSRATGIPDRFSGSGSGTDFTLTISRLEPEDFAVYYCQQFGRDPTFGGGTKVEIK"
value_reported = 7.77

[[record]]
binder = "ADI-34132 (antibody, V domains shown, anti-ID IgG) VH: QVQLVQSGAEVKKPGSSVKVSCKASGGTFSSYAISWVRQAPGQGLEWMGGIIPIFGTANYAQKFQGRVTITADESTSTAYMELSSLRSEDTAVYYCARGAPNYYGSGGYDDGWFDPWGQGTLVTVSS VL: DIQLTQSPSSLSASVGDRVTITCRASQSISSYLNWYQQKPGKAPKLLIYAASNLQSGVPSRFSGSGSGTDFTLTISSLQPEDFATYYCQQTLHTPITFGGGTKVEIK"
value_reported = 9.05

